Target Desc: CDK4-CYCLIND1 (Homo sapiens)
Sequence (P11802 whole entry): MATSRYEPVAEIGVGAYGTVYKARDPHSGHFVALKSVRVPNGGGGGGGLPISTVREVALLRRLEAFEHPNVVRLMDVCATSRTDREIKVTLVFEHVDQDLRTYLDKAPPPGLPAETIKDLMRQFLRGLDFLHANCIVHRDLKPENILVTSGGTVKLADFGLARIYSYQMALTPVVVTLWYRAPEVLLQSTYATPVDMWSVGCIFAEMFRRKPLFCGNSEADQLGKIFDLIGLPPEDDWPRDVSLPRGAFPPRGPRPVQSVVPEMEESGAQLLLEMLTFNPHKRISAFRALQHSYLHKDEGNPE
Sequence (P24385 whole entry partner): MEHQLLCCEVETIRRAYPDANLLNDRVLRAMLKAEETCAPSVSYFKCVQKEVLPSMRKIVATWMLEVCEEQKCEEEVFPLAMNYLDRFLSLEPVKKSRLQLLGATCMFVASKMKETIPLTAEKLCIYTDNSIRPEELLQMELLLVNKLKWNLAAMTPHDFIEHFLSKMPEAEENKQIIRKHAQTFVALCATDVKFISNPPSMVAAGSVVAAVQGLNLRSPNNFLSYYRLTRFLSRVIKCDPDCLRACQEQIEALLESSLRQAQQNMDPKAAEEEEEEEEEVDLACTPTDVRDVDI
Assay Overview: Microfluidic LabChip inhibition assay, CDK4-CYCLIND1
Type: biochemical
Measurement Conditions: Table 2; ATP 200 μM, 25° C.; read-out: CDK4 IC50
Description: The reaction was terminated by the addition of EDTA. The plates were analyzed using a Caliper LabChip 3000. Additional inhibition assays were performed as described above.
Property Label: IC50 (nM)

// solved cases for IC50 follow
Lookup result for CC(C)N1CCN(c2ccc(Nc3ncc4cc(C#N)c(=O)n(C5CCCC5)c4n3)cc2)CC1 ; measured IC50: 1.8

Lab note: CCN1CCN(Cc2ccc(Nc3ncc4cc(C#N)c(=O)n(C5CCCC5)c4n3)nc2)CC1 gave IC50 of 46.3

# compound N#Cc1cc2cnc(Nc3ccc(N4CCC(N5CCOCC5)CC4)nc3)nc2n(C2CCCC2)c1=O ; its IC50 = 11.3

A. N#Cc1cc2cnc(Nc3ccc(N4CCC(N5CCOCC5)CC4)cc3)nc2n(C2CCCC2)c1=O
B. N#Cc1cc2cnc(Nc3ccc(C4=CCNCC4)cn3)nc2n(C2CCCC2)c1=O
C. CC(C)N1CCN(c2ccc(Nc3ncc4cc(C#N)c(=O)n(C5CCCC5)c4n3)c(F)c2)CC1
D. CN(C)CCOc1ccc(Nc2ncc3cc(C#N)c(=O)n(C4CCCC4)c3n2)cc1
Order the records, beginning with the lowest IC50 and ending with the highest. Please, when replying, give the labels in the order that was requested.
D, A, B, C
